# SUBJECT OF TEST: UniProt P35372
# ASSAY PROTOCOL: μ-opioid receptor [35S]GTPγS functional assay, HEK-293 cells (Table 6)
# Format: biochemical
# MEASUREMENT CONTEXT: relative to DAMGO
Overview of recorded Emax for various compounds
MEASURED ATTRIBUTE: Emax (%)

COMPOUND STRUCTURE STRING | MEASURED ATTRIBUTE | SCALE UNIT | OBS VALUE
CN1CC[C@]23C[C@@H](C(=O)NCc4ccc(Cl)cc4Cl)C[C@@]2(O)[C@H]1Cc1ccc(O)cc13 | Emax | % | 68
O=C(NCc1cccc(Cl)c1)[C@@H]1C[C@]23CCN(CC4CC4)[C@H](Cc4ccc(O)cc42)[C@]3(O)C1 | Emax | % | 4.45
CN1CC[C@]23C[C@H](NC(=O)c4ccccc4)C[C@@]2(O)[C@H]1Cc1ccc(O)cc13 | Emax | % | 70.4
NC(=O)c1ccc2c(c1)[C@]13CCN(CC4CC4)[C@H](C2)[C@]1(O)C[C@@H](C(=O)NCCN1CCOCC1)C3 | Emax | % | 18.4
O=C(NCc1cccc(O)c1O)[C@@H]1C[C@]23CCN(CC4CC4)[C@H](Cc4ccc(O)cc42)[C@]3(O)C1 | Emax | % | 1.93
Cc1c(Cl)cccc1CNC(=O)[C@H]1C[C@]23CCN(CC4CC4)[C@H](Cc4ccc(O)cc42)[C@]3(O)C1 | Emax | % | 52.4
Cc1ccc(CNC(=O)[C@H]2C[C@]34CCN(C)[C@H](Cc5ccc(O)cc53)[C@]4(O)C2)cc1 | Emax | % | 90.3
Cc1ccc(CNC(=O)[C@@H]2C[C@]34CCN(CC5CC5)[C@H](Cc5ccc(C#N)cc53)[C@]4(O)C2)cc1 | Emax | % | 22.7
CN1CC[C@]23C[C@@H](C(=O)NCCc4ccccc4)C[C@@]2(O)[C@H]1Cc1ccc(O)cc13 | Emax | % | 50.3

###

# SUBJECT OF TEST: μ-opioid receptor (Homo sapiens (Human))
# ASSAY PROTOCOL: μ-opioid receptor [35S]GTPγS functional assay, U-2 OS cells (Table 5)
# Format: biochemical
# MEASUREMENT CONTEXT: relative to DAMGO
Record Y whenever Emax is at 40% or higher; record N when lower.

COMPOUND | CLASS
O=C(NCCc1ccccc1)[C@H]1C[C@]23CCN(CC4CC4)[C@H](Cc4ccc(O)cc42)[C@]3(O)C1 | Y
COc1ccc2c(c1)[C@]13CCN(CC4CC4)[C@H](C2)[C@]1(O)C[C@@H](C(=O)O)C3 | N
O=C(NCc1ccc(Cl)cc1Cl)[C@@H]1C[C@]23CCN(CC4CC4)[C@H](Cc4ccc(O)cc42)[C@]3(O)C1 | N
COc1ccc2c(c1)C13CCN(CC4CC4)[C@H](C2)[C@]1(O)C[C@@H](N)C3 (stereo in doubt) | N
O=C(NCc1ccc(Cl)c(Cl)c1)[C@H]1C[C@]23CCN(CC4CC4)[C@H](Cc4ccc(O)cc42)[C@]3(O)C1 | Y
Cc1ccc(CNC(=O)[C@@H]2C[C@]34CCN(CC5CC5)[C@H](Cc5ccc(O)cc53)[C@]4(O)C2)cc1 | N
O=C(NCc1cc(F)cc(F)c1)[C@@H]1C[C@]23CCN(CC4CC4)[C@H](Cc4ccc(O)cc42)[C@]3(O)C1 | Y
